So I've got a bunch of compounds here, and I need their MIC values.
# Tested on: Staphylococcus aureus
# assay name: Antimicrobial activity against Staphylococcus aureus ATCC 25923 incubated for 18 hrs by CLSI-based microbroth dilution method
# Type: functional
# condition label: ATCC 25923, 18 h
Answers are plain numbers, in mg/L.

Worked examples, 3 compounds total:
Query string: Form entry - test system: Staphylococcus aureus; read-out: MIC; compound: "CCn1cc(C(=O)O)c(=O)c2cc(F)c(N3CCNCC3)cc21.Cl"
Result string: 2

Query string: # repeat for "CCn1cc(C(=O)O)c(=O)c2cc(F)c(N3CCCCCC3)cc21"
Result string: 0.5

Query string: "Cl.O=C(O)c1cn(CCO)c2cc(N3CCNCC3)c(F)cc2c1=O" ?
Result string: 64

// moving on: another record for MIC
Query string: Any idea what MIC came out for "CCCCN(CCCC)c1cc2c(cc1F)c(=O)c(C(=O)O)cn2C1CC1" on Staphylococcus aureus?
Result string: 8
